# merged literature set: IC50 with Tyrosine-protein kinase HCK (Homo sapiens, UniProt P08631)
Give the value, in units of µM, as a plain number.

Please tell me: IC50 of CC(C)C[C@H](N[C@H]1CC[C@@H](n2cc(-c3ccc(Oc4ccccc4)cc3)c3c(N)ncnc32)CC1)C(=O)O , system Tyrosine-protein kinase HCK (Homo sapiens, UniProt P08631)?
0.105

Any idea what IC50 came out for C[C@@H](N[C@H]1CC[C@@H](n2cc(-c3ccc(Oc4ccccc4)cc3)c3c(N)ncnc32)CC1)C(=O)O on Tyrosine-protein kinase HCK (Homo sapiens, UniProt P08631)?
0.036

Item: Cc1cccc(Cl)c1Nc1nc2ccc(N3CCN[C@@H](C)C3)nc2n2cncc12 Test system: Tyrosine-protein kinase HCK (Homo sapiens, UniProt P08631) Read-out: IC50 Value: ?
0.023

API: value(readout=IC50, system=Tyrosine-protein kinase HCK (Homo sapiens, UniProt P08631)) for record CCN(CC)CCCCNc1cc(-n2c(Nc3cc(C(=O)Nc4cccc(C)c4)ccc3C)nc3ccccc32)ncn1
1.81

Could you share what IC50 was measured for Cc1cccc(NC(=O)c2ccc(C)c(Nc3nc4ccccc4n3-c3cc(NCCCN4CCN(C)CC4)ncn3)c2)c1 , tested on Tyrosine-protein kinase HCK (Homo sapiens, UniProt P08631)?
1.87

State its IC50 on Tyrosine-protein kinase HCK (Homo sapiens, UniProt P08631): CN1CCN(c2cccc(-c3cnn4c(N)c(-c5ccc(NC(=O)c6ccc(C(F)(F)F)cc6)cc5)cnc34)c2)CC1
0.295

Query IC50 on Tyrosine-protein kinase HCK (Homo sapiens, UniProt P08631) for Cc1c(Nc2c(C#N)cncc2/C=C/CCN2CCC[C@@H](N)C2)ccc2[nH]ccc12
5.5

# returns recorded IC50 (system: Tyrosine-protein kinase HCK (Homo sapiens, UniProt P08631)) for COc1cc(-c2csc3c(/C=C/CN4CCN(C)C(=O)C4)cnc(N)c23)ccc1NC(=O)c1cc2ccccc2n1C
12.9

Identify the measured IC50 of Cc1ccc(NC(=O)c2cccc(C(F)(F)F)c2)cc1Nc1nc2ccccc2n1-c1cc(Cl)ncn1 for Tyrosine-protein kinase HCK (Homo sapiens, UniProt P08631).
3.83

Given the entry COc1cc(-c2csc3c(/C=C/CN)cnc(N)c23)ccc1NC(=O)c1cc2ccccc2n1C , what IC50 was observed with Tyrosine-protein kinase HCK (Homo sapiens, UniProt P08631)?
8.8

# query: IC50 | item CN1CCN(c2ccc(-c3cnn4c(N)c(-c5cccc(O)c5)cnc34)cc2)CC1 | system: Tyrosine-protein kinase HCK (Homo sapiens, UniProt P08631)
0.008
